Target: T1, recombinant human CD63 extracellular loop 2 expressed with a C-terminal Myc-Myc-hexahistidine (human)
T1 construct: also called hCD63 EC loop 2-MMH; human CD63 EC loop 2-MMH
T1 sequence (chain, as listed by the source limits assumed): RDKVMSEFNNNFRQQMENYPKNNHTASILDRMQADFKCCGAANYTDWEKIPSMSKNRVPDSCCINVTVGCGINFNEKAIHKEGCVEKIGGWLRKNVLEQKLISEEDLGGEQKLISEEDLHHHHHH
Assay: SPR Biacore, mAb captured, 25C
observation-type: 100 nM Ag Bound (RU)
Please give the number followed by its unit.

The following binders have reported results that may help.
1) H2M12450N (antibody, V domains shown, also called H2aM12450N; mAb12450) VH: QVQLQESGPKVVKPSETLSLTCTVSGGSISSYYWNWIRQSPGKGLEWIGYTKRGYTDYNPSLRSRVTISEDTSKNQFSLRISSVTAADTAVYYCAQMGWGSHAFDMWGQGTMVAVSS VL: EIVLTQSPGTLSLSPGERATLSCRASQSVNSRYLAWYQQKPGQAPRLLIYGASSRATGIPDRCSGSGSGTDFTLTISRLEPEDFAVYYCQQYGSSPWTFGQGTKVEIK
65 RU
2) H2M12395N (antibody, V domains shown, also called H2aM12395N) VH: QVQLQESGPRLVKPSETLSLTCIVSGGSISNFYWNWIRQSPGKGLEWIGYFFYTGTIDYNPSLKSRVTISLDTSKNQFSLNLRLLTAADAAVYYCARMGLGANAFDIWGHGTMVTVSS VL: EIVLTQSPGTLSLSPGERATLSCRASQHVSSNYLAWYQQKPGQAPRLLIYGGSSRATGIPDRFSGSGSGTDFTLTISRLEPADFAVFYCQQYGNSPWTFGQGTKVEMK
42 RU
3) H2M12385N (antibody, V domains shown, also called H2bM12385N; H2bM12385) VH: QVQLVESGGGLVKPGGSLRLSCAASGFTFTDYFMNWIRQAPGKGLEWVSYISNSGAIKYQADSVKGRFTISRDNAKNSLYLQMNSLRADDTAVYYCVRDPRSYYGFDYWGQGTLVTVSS VL: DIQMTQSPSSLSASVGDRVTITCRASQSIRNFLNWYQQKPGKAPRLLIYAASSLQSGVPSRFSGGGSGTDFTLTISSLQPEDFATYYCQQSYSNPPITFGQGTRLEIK
48 RU

Bench note: what 100 nM Ag Bound (RU) did H2M13022N (antibody, V domains shown, also called H2bM13022N) VH: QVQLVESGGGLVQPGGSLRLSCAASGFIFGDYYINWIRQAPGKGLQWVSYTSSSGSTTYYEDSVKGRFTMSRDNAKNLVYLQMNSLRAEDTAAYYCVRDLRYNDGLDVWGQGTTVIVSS VL: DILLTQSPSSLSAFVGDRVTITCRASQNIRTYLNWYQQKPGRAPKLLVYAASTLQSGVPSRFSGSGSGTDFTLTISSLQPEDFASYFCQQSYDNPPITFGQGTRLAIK show?
48 RU

Next: H1M12362N (antibody, V domains shown) VH: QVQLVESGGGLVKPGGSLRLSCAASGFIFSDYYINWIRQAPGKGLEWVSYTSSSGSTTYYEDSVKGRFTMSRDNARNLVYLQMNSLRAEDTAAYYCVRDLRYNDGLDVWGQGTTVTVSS VL: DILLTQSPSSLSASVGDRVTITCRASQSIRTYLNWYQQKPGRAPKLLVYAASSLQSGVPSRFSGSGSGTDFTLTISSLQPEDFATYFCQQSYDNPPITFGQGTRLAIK
51 RU
